The entries below come with measured yeast fitness (ln) values attached.
B1: tRNA (parent)
chain: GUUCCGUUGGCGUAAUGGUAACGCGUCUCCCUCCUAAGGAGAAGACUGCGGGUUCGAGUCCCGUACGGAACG

- Variants of: B1
- ASSAY_SUMMARY: yeast fitness, log relative to wild type (ln ratio); higher = fitter; tRNA-Arg(CCU), competitive growth, 37 C, 1 M NaCl
Write the value as a bare number.

VARIANT_NAME | OBSERVED_MEASUREMENT
U2G G6A C27U A43C C66A C71U | -0.2
G1A U2G C46U A69G A70U | -0.238
U2G C46U C66U A70G | -0.11
G1A U2G G6U C66U A69G A70G C71U | -0.529

response.value for U2C A43C C46U C66A A69G A70U (field: yeast fitness (ln)) = -0.0111

Kindly note the recorded yeast fitness (ln) for G1A U2C G6U C46U C66A A70U C71U , which is -0.0961

The variant G1A U2G G6U C27U A43C A69G C71U showed yeast fitness (ln) equal to -0.479

Lab note: measured yeast fitness (ln) of G1A U2G G6U A43C C46U C66A A69G A70U was -0.256

Given item U2C G6U C27U C46U A69G A70G , the value recorded as its yeast fitness (ln) is -0.274
